System Name: PDE5 (Homo sapiens)
Assay Metric: IC50

- Compound: "Oc1ccc(-c2cc(-c3cc(O)cc(O)c3)n[nH]2)cc1 [RES003]"
  Result: "> 100 µM"

Consider the additional compound presented here.
Respond only with IC50 recorded for Oc1ccc(/C=C/c2cc(O)cc(O)c2)cc1 [resveratrol, Resveratrol]
> 100 µM

====

Tested on: PDE4
Test Protocol: PDE enzymatic assay (radioactive tracer, 3H-cAMP/3H-cGMP)
Assay type: biochemical
Experimental Parameters: 3H-cAMP or 3H-cGMP substrate, 24 °C, 30 min; read-out: IC50 against PDE4
For each entry below, report its pIC50 value.
Give bare numbers, as −log10 of the molar value.

- Compound String: "Oc1ccc(-c2cc(-c3cc(O)cc(O)c3)n[nH]2)cc1"
  Recorded Number: 6.06

Consider the additional compound presented here.
Respond only with pIC50 recorded for Oc1ccc(/C=C/c2cc(O)cc(O)c2)cc1
4.73

====

System Name: PDE2 (Homo sapiens)
Sequence (O00408 whole entry): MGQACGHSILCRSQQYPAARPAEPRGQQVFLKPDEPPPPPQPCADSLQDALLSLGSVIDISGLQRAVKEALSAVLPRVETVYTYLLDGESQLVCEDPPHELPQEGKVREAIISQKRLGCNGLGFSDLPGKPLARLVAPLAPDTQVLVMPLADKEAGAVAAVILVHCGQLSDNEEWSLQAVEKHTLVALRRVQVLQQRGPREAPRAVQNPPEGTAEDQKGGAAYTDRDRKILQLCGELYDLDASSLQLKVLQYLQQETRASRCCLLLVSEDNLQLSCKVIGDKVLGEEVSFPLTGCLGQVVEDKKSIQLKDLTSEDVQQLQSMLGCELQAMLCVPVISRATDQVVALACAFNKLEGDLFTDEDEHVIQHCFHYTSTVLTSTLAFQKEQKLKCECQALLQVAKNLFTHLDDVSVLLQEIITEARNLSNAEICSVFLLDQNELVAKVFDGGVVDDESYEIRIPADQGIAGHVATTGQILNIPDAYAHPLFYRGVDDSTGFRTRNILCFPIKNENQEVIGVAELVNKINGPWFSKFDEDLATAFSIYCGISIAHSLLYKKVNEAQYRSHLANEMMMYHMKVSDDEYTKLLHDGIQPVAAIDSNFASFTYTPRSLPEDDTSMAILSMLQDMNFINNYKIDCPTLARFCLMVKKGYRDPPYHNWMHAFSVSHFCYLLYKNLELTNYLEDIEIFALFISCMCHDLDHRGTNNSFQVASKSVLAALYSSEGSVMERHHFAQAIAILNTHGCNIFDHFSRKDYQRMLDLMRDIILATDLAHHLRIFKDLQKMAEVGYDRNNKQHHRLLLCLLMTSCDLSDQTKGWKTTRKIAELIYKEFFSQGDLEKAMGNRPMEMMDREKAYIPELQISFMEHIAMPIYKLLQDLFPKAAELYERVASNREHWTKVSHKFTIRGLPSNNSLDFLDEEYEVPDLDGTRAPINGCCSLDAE
pIC50: −log10 of the molar value.
Assay Metric: pIC50

Respond only with pIC50 recorded for Oc1ccc(/C=C/c2cc(O)cc(O)c2)cc1
< 4.00
